- measuredTarget: TYK2-JH2 (aa 575-869, in-house) protein (Homo sapiens)
- Construct: TYK2-JH2 (aa 575-869, in-house) protein; made in house
- Sequence (P29597 575-869): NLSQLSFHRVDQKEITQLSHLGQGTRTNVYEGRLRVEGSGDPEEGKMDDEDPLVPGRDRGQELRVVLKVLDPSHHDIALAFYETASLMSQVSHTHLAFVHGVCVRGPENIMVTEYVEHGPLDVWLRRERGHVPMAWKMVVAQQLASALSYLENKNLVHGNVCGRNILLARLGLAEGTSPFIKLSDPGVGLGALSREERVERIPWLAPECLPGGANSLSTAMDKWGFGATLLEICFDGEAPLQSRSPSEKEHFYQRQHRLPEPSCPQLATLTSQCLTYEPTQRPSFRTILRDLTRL
- assayText: TYK2-JH2 biochemical assay (HTRF probe displacement)
- Assay type: binding
- testContext: Biochemical assay; read-out: TYK2-JH2 IC50
- Experimental: Assay A: TYK2-JH2 Biochemical Assay Compounds disclosed herein were tested for blocking of TYK2-JH2 (aa 575-869, in-house) protein with its probe in an assay based on Homogeneous Time Resolved Fluorescence. […] The HTRF signals (ex337 nm, em620 nm/665 nm) were read on BMG PHERAstar FS instrument. The inhibition percentage of TYK2 interaction with its probe in presence of increasing concentrations of compounds was calculated based on the ratio of fluorescence at 615 nm to that at 665 nm. […]
propertyMeasured: pIC50
Answers are plain numbers, as −log10 of the molar value.

Example results:
1) CC(=O)Nc1cc(Nc2cc(OCC#N)cc(S(C)(=O)=O)n2)c(-c2ccn(C)n2)cn1	10.59
2) CC(=O)Nc1cc(Nc2cc(C)cc(S(C)(=O)=O)n2)c(-c2ccn(CC(=O)N3CCOCC3)n2)cn1	10.10
3) CC(=O)Nc1cc(Nc2cc(OC[C@H](C)O)cc(S(C)(=O)=O)n2)c(-c2ccc(C(F)(F)F)cn2)cn1	10.59

Note: attention shifts to another entry.
### Prompt What does the data say about its pIC50? Entry: COCCOc1ccc(-c2cnc(NC(C)=O)cc2Nc2cc(OC[C@@H](C)OC)cc(S(C)(=O)=O)n2)nc1
### Response 10.51

Values compiled from patent US20240043435A1.
